Test system: SK-MEL-28
run_description: NCI tumour cell line growth inhibition, 48 h
Calls of active or inactive are those of the source. Rule as the data show it: active = GI50 up to about 1.1 µM and inactive = higher.
Lab note: assign the record to one of active, inactive

*Q* GET /call?item= COc1cc2c(c(OC)c1OC)-c1ccc(SC)c(=O)cc1[C@@H](NC(=O)c1cccc([N+](=O)[O-])c1)CC2 returns the recorded outcome of this test.
*A* active

*Q* For O=C(/C=C/c1ccc(O)c(O)c1)OCc1ccccc1 [BENZYL CAFFEATE] , which call appears in the assay record?
*A* inactive

*Q* # fetch the recorded call for COC(=O)/C=C/c1cc(OC)c(OC)c(OC)c1 here
*A* inactive

*Q* # outcome recorded in this test, key = O=c1c2cc3c(cc2[nH]c2ncccc12)OCO3
*A* inactive

*Q* Field: outcome | Entry: O=C(c1ccc(Cl)cc1)C1OC12C(=O)Nc1ccccc12 (stereo unspecified)
*A* inactive

*Q* What did the test return for Cc1ccc(S(=O)(=O)N(CC(O)COc2ccccc2)c2c(F)c(F)cc(F)c2F)cc1 (stereo unspecified) ?
*A* inactive
